TARGET OF ASSAY: T1, Claudin 18.2 (CLDN18.2), expressed on CHOS-CLDN 18.2 / HEK293-CLDN 18.2 / HCC827-CLDN 18.2 cells (human, UniProt P56856-2 1-261)
T1 construct: whole, on cells; The species is not repeated for the CHOS-CLDN 18.2 cells; also called claudin-18A2
ASSAY NOTES: FACS, CHOS-CLDN18.2 cells, 5 µg/ml
EXPERIMENTAL READOUT: FACS reading
Give only the figure.

Using the record for QP14371435 (antibody, human IgG1, kappa, V domains shown, Humanized from QP190191) VH: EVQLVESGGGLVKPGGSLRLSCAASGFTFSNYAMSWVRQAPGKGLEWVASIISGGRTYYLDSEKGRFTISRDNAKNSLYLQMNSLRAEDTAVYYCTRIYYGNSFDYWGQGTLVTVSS VL: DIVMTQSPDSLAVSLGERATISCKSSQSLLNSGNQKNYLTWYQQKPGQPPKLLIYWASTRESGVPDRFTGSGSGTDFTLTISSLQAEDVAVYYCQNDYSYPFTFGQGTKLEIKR , state its measured FACS reading.
197000
